# testName: viability loss with induced miR-34 in A549 – imaging, A549 dox-inducible miR-34, nuclei and caspase counts, primary screen (AID 1347080)
# testParameters: A549 miR-34 inducible, Hoechst nuclei count, 48 h; measured here: total cells without miR-34 induction
# strict inequality: cell count < 6000 yields 1.0, everything else yields 0.0

CCCCC(C)(C)[C@H](O)/C=C/[C@H]1C=CC(=O)[C@@H]1C/C=C\CCCC(=O)O :: 0.0

Prompt line: Quick check: cell count of CCCCCCCCCCCCCCCCC/C=C/C(=O)O under 6000?
Response line: 1.0

---

# testName: galactose survival enhancers in mitochondrial complex I cybrids – cell-based, galactose medium, ATP luminescence, primary screen (AID 1645843);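 further: positive z means more ATP and so rescue of galactose-driven cybrid death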
# testParameters: complex I mutant cybrid cells, 72 h, stronger effect = higher value
yes (1) means recorded z-score is -0.2 or above; no (0) means it is below -0.2.

COc1cc(Br)c(S(=O)(=O)Nc2ccc(Cl)c(O[C@@H]3CCN(C)C3)c2)cc1OC :: no (0)
CC(=O)NCCc1c(Cc2ccccc2)[nH]c2ccccc12 :: yes (1)
OC[C@H]1O[C@@H](n2cnc3c(NC4CCCC4)nc(Cl)nc32)[C@H](O)[C@@H]1O :: yes (1)

Prompt line: Could you tell me if the measured z-score of Cc1c(C(=O)N(C)C2CCCCC2)sc2nc3ccc(N)cc3n12 reaches -0.2 or more?
Response line: no (0)

Prompt line: Could you tell me if the measured z-score of CC(=O)NC1=NN(C(C)=O)C(C)(c2ccccc2)S1 (stereo not drawn) reaches -0.2 or more?
Response line: no (0)

Prompt line: Could you tell me if the measured z-score of O=C(O)/C=C1\CCCc2ccccc2C1O (stereo not drawn) reaches -0.2 or more?
Response line: yes (1)

---

Each entry below carries its reported viability.
# testName: drug combination growth inhibition, ovarian cancer – cell-based, oncology-focused library, rucaparib conditional, profiling panel (AID 1508598)
# testParameters: patient-derived ovarian cancer cells, CellTiter-Glo viability, 144 h; at 0.000305 µM; OCI-P5x cells; without rucaparib; stronger effect = lower value
Active and inactive are the calls of the source.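 Rule for the calls: active = normalized viability below 100% at a tested concentration; inactive = the rest.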

Worked cases, viability given:
O=C(Nc1cccnc1)N1CCC(Cc2cccc(Oc3ccc(C(F)(F)F)cn3)c2)CC1 :: 110% (inactive)
NC(=O)C1CCCc2c1[nH]c1ccc(Cl)cc21 (stereo not given) :: 96.9% (active)
COc1cc(Nc2ncc3c(n2)-c2ccc(Cl)cc2C(c2c(F)cccc2OC)=NC3)ccc1C(=O)O :: 109% (inactive)
CN1CCN(c2ccc3nc(-c4c(N)c5c(F)cccc5[nH]c4=O)[nH]c3c2)CC1 :: 105% (inactive)

Prompt line: Entry under review: O=C(NC1CCNCC1)c1[nH]ncc1NC(=O)c1c(Cl)cccc1Cl . Reported viability?
Response line: 97.4% (active)

---

Each entry below carries its reported z-score.
# testName: MELAS cybrid and Rieske KO viability enhancers – cell-based, MELAS cybrids, Rieske KO mouse fibroblasts, CellTiter-Glo, primary screen (AID 1508586);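 further: z relative to plate mean and SD of compound and empty wells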
# testParameters: Rieske KO mouse fibroblast survival, low glucose, CellTiter-Glo 72 h

CCS(=O)(=O)N1CC(CC#N)(n2cc(-c3ncnc4[nH]ccc34)cn2)C1 :: 0.0326
CN(C)CCN1C(=O)c2cccc3cc(N)cc(c23)C1=O :: -0.182
Cc1cnc(-c2ccccc2C(C)C)nc1NCc1ccc(-n2ccnn2)cc1 :: 0.422
CCS(=O)(=O)c1cccc(-c2cc(C(=O)NC3CCN(C)CC3)c(C)c3[nH]c4ncc(C)cc4c23)c1 :: -0.249

In the following, a different compound is considered.
Prompt line: Entry under review: CNC(=O)c1cc(Oc2ccc(NC(=O)Nc3ccc(Cl)c(C(F)(F)F)c3)c(F)c2)ccn1 . Reported z-score?
Response line: 1.02

Source of measurements: PubChem BioAssay
